Below: a set of entries, each annotated with reported normalized growth.
Test: chemical genetic growth profiling, strain panel (AID 1159580);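 further: tested at 20 µM; growth read once vehicle control cultures reached saturation at 30 °C; 1 = growth at the plate median or of vehicle wells; lower values mean less growth of the strain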
Settings: S. cerevisiae deletion strains, growth OD, locus YOL078W, strain AVO1, active compounds read low
Screen size: about 5,500 compounds; about 2,000 (36%) were called active. Inconclusive results (about 18%) are left out. The list shows a part of the results.
Write the value as a bare number.

• CCCC1c2ccsc2CCN1C(=S)Nc1ccc(Cl)cc1Cl (stereo not given) = 0.974
• O=C(CCSc1cccs1)Nc1cccc(C(F)(F)F)c1 = 0.917
• Cc1cc(C(=O)O/N=C(/N)c2ccc(C(C)(C)C)cc2)no1 = 0.979
• CCC1CCC(C)N(C(=S)Nc2ccc(Br)cc2C)C1 (stereo not given) = 0.959

Ask: Using the record for Cc1cc(C(=O)O/N=C(/N)c2ccc([N+](=O)[O-])o2)no1 , report its normalized growth.
Reply: 0.952

====

Assay: chemical genetic growth profiling, strain panel (AID 1159580);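 further: tested at 20 µM; growth read once vehicle control cultures reached saturation at 30 °C; 1 = growth at the plate median or of vehicle wells; lower values mean less growth of the strain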
Details: S. cerevisiae deletion strains, growth OD, locus YMR307W, strain GAS1
Screen size: about 5,500 compounds; about 2,000 (36%) were called active. About 18% were inconclusive and are not listed. Cut-off read from the data, not from the text of the source: active = normalized growth mostly below about 0.91 (no sharp cut-off); inconclusive = no clear call, values can overlap the other calls; inactive = mostly above about 0.92. This is one part of the list.
Could you please pick one outcome from this set? true for active, false for inactive

Observe how each entry below is paired with its result.
- CC(=O)c1ccc(-c2ccc(C(C)=O)cc2)cc1: false
- Cn1ccc2cc3c(cc21)CCN3C(=O)Nc1cccnc1: false
- CC[C@H]1CN2CCc3cc(OC)c(OC)cc3[C@@H]2C[C@@H]1C[C@H]1NCCc2cc(OC)c(OC)cc21: false

Ask: Hi, do you know how CC12CCC(CC1)C(C)(C)O2 came out in this test?
Reply: false

Ask: Hi, do you know how COc1cc(/C=C/C(=O)O)ccc1O came out in this test?
Reply: false

Ask: Hi, do you know how CC(C)C1=CC2=CCC3[C@](C)(CCC[C@]3(C)C(=O)O)C2CC1 (stereo not given in full) came out in this test?
Reply: true

Ask: Hi, do you know how OC/C=C/c1ccc(O)c(O)c1 came out in this test?
Reply: false

Ask: Hi, do you know how O=C(O)CCC(=O)c1ccc(-c2ccccc2)cc1 came out in this test?
Reply: false

Ask: Hi, do you know how CC12CCCC(O)(C1)C1CC(C)(C)C1CC2 (stereo not given) came out in this test?
Reply: false

Ask: Hi, do you know how C#C[C@]1(O)CCC2C3CCc4cc(O)ccc4C3CC[C@@]21C (stereo not given in full) came out in this test?
Reply: false

Ask: Hi, do you know how CCOC(=O)Nc1ccc(NCc2ccc(F)cc2)nc1N came out in this test?
Reply: false

Ask: Hi, do you know how Oc1ccc(/C=C/c2cc(O)cc(O)c2)cc1 came out in this test?
Reply: true

Ask: Hi, do you know how CC[C@@H](C(=O)[C@@H](C)[C@@H](O)[C@H](C)[C@@H]1O[C@@H]([C@@H](CC)C(=O)O)CC[C@@H]1C)[C@H]1OC2(C=C[C@@H](O)[C@]3(CC[C@@](C)([C@H]4CC[C@](O)(CC)[C@H](C)O4)O3)O2)[C@H](C)C[C@@H]1C (stereo not given in full) came out in this test?
Reply: false

Ask: Hi, do you know how COc1ccccc1OCC(O)CN1CCN(CC(=O)Nc2c(C)cccc2C)CC1 (stereo not given) came out in this test?
Reply: false

Ask: Hi, do you know how CC(N)=NCCC[C@H](N)C(=O)O came out in this test?
Reply: false

Ask: Hi, do you know how CO[C@@H]1C[C@@H](C[C@H]2CC[C@H](C)[C@H]([C@@H](C)C(=O)O)O2)O[C@]2(O[C@](C)([C@H]3CC[C@@](C)(C4O[C@@H](C5O[C@@](O)(CO)[C@H](C)C[C@@H]5C)C[C@@H]4C)O3)C[C@H]2C)[C@@H]1C (stereo not given in full) came out in this test?
Reply: false

Ask: Hi, do you know how O=C(/C=C/c1ccc(O)c(O)c1)O[C@@H]1C[C@](O)(C(=O)O)C[C@@H](O)[C@H]1O came out in this test?
Reply: false

Ask: Hi, do you know how COc1ccccc1N1CCN(CCCNc2c(C)c(=O)n(C)c(=O)n2C)CC1 came out in this test?
Reply: false

Ask: Hi, do you know how Cc1ccc(Cl)cc1NC(=S)NCCO came out in this test?
Reply: false

Ask: Hi, do you know how Cc1cn([C@H]2C[C@@H](N=[N+]=[N-])[C@@H](CO)O2)c(=O)[nH]c1=O came out in this test?
Reply: false
